Experiment: growth suppression of PTEN-deleted HCT116, pilot screen, cell-based, HCT116 clonal line, CellTiter-Glo (AID 824)
Conditions: 60 h, at 10 µM, hits give low values
Records with an inconclusive call do not appear.
Quick rule for you: viability under 90% gets Criterion met, anything else gets Criterion not met.

Some solved entries appear below for comparison.
COc1ccc(C(=O)Nc2ccc(S(=O)(=O)Nc3cc(C)nc(C)n3)cc2)c(OC)c1
Criterion not met
OCCN1CCN(c2ncnc3ccc(Br)cc23)CC1
Criterion not met
OC(COc1ccccc1Cl)CN1CCN(CC(O)COc2ccccc2Cl)CC1 (configuration not stated)
Criterion met
Cc1ccc(NC(=O)CSc2nnc(Cn3c(=O)sc4ccccc43)n2C)cc1Cl
Criterion met

We now examine a further molecule.
Problem: Hello, is viability of the following molecule strictly smaller than 90%? CCC(Sc1nc2ccccc2[nH]1)C(=O)Nc1cc(C)on1 (configuration not stated)
Solution: Criterion not met
